Biological target: KRAS protein containing G12D mutation (Homo sapiens (Human), UniProt P01116, G12D)
Sequence (P01116 other isoform, or with tags, fused parts or gaps G12D (already in the parent)): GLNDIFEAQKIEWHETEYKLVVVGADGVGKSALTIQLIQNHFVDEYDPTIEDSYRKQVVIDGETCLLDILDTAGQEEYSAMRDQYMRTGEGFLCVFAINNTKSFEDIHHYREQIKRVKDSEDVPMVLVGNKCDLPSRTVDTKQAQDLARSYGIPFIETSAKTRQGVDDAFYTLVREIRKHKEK
Assay: SOS-catalyzed nucleotide exchange assay (GNE), TR-FRET
Type: biochemical
Settings: biotinylated KRAS G12D, SOS and GTP, 60-minute incubation
Sorting guide: entries reporting IC50 beneath 300 nM go in the Satisfied pile, the rest go in the Not satisfied pile.

Before answering, review these 4 worked examples.
>>> class("CN(C)C[C@@]1(COc2nc(N3C[C@H]4CC[C@@](C)(C3)N4)c3cc(Cl)c(-c4c(F)cc(F)c5ccc(N)nc45)c(F)c3n2)CC1(F)F (single isomer, unassigned) [92b]")
"Satisfied"
>>> class("Oc1ccc(SC(F)(F)F)c(-c2c(F)cc3c(N4CC5CCC(C4)N5)nc(OCC4(CN5CCOCC5)CC4)nc3c2F)c1")
"Not satisfied"
>>> class("C[C@]12CCC(CN(c3nc(OC[C@@]45CCCN4C[C@H](F)C5)nc4c(F)c(-c5cc(O)cc6cc(F)cc(Cl)c56)c(F)cc34)C1)N2 (single isomer, unassigned) [Ex. 180b]")
"Not satisfied"
>>> class("Oc1cc(-c2c(F)cc3c(N4CC5CC(F)C(C4)N5)nc(OCC4(CN5CCOCC5)CC4)nc3c2F)c2ccccc2c1 (single isomer, unassigned) [Ex. 3a]")
"Not satisfied"

Decide: IC50 of C[C@]12CCC(CN(c3nc(OCC45CCCN4CC(C(F)F)C5)nc4c(F)c(-c5cc(O)cc6cccc(Cl)c56)c(F)cc34)C1)N2 (single isomer, unassigned) [Ex. 173-2a] strictly below 300 nM?
Satisfied
